- experiment_summary: HepG2 cell viability effects, profiling panel, calcein-AM fluorescence, 48 h, basal (AID 1164)
- condition_parameters: higher = more signal
attribute_measured: z-score

INSERT INTO results (compound, value_measured) VALUES
  ('COC(=O)c1c(CC[C@@H](CO)NC(=O)N[C@H](Cc2ccccc2)Cn2cc(-c3ccccc3N)nn2)oc(C(C)=O)c1C(=O)OC', 0.169),
  ('CC(C)NC(=O)[C@@H]1c2ccccc2C(=O)N(CC23CC4CC(CC(C4)C2)C3)[C@H]1c1ccc(CO)cc1', 1.29),
  ('CCCC[C@@H](O)C1=C(C)C[C@H]2C(=O)N(Cc3ccccc3)C(=O)[C@H]2[C@H]1CO', -0.0592),
  ('C=CCC(OC(C)=O)[C@@H]1[C@@H](N(Cc2cc3ccccc3o2)C(=O)Cc2ccc(F)cc2)c2cc(OCCCO)ccc2N1C(=O)Cc1ccc(OC)cc1 (some centres undefined)', 0.585);

* * *

- measured_target: Torsin-1A-interacting protein 2 (Homo sapiens) (UniProt Q8NFQ8)
- Sequence (Q8NFQ8 whole entry, looked up): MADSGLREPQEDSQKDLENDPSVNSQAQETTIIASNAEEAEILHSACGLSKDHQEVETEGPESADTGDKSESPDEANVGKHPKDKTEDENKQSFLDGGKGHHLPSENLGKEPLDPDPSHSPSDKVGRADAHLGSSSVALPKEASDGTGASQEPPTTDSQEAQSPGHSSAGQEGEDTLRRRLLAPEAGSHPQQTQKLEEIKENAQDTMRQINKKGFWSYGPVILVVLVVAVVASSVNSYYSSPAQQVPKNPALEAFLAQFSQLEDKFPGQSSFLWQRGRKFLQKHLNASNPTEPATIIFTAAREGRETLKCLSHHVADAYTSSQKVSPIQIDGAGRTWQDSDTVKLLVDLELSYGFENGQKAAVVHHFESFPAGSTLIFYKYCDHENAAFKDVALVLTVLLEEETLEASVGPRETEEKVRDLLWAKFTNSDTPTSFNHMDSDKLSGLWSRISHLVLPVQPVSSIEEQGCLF
- experiment_summary: LULL1 binders on small-molecule microarray, primary screen, cell lysate, human LULL1 lysate, 635/667 nm fluorescence (AID 1092);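 note: probe is lysate of COS7 cells overexpressing human LULL1; score merges per-feature 667 nm fluorescence with signal-to-noise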
- condition_parameters: hLULL1 lysate binding, 635 nm fluorescence, higher = more signal
Classes by composite z-score: low bin = under -0.08, mid bin = from -0.08 up to 2, high bin = 2 and over

INSERT INTO results (molecule, class_name) VALUES
  ('CC1CC/C=C\[C@H]2OC34C=CCN(Cn5nnc6ccccc65)C(=O)[C@H]3N(CCO)C(=O)[C@@H]4C2C(=O)O1 (some centres not stated)', 'high bin'),
  ('O=C1[C@H]2[C@H]3[C@H](O)[C@H](O)CC(=NO[C@@H]4O[C@H](CO)[C@@H](O)[C@H](O)[C@H]4O)[C@H]3CC[C@H]2C(=O)N1Cc1ccc2c(c1)OCO2', 'high bin'),
  ('CN(C)c1ccc(C(O)C2C=CC3C(=O)N(c4ccccc4)C(=O)C3N2Nc2ccccc2F)cc1 (configuration not stated)', 'high bin'),
  ('C/C=C\[C@@H](NCc1ccccc1Br)[C@@H](O)Cc1ccccc1', 'low bin'),
  ('COc1cccc([C@H]2Oc3ccc(OC)cc3C(=NO[C@H](C)c3cn([C@@H]4COC[C@H]4O)nn3)[C@@H]2O)c1', 'mid bin'),
  ('CC(=O)OC[C@H]1O[C@H](CCON=C(C)CCN2CCc3nc(-c4ccccc4)c(-c4ccccc4)cc3C2)C=C[C@@H]1OC(C)=O', 'mid bin'),
  ('CC(C)=CCCC(C)=CCON=C1C[C@@H](O)[C@@H](O)[C@@H]2[C@@H]3C(=O)N(C[C@@H]4CCCO4)C(=O)[C@@H]3CC[C@@H]12', 'high bin'),
  ('Cc1cc2c(nc1C)CCCN2CC(O)CN1CCN(C)CC1 (configuration not stated)', 'mid bin'),
  ('O=C1C2C=CC(C(O)c3ccc([N+](=O)[O-])cc3)N(Nc3ccc([N+](=O)[O-])cc3)C2C(=O)N1c1ccccc1 (configuration not stated)', 'high bin'),
  ('CC(=O)OC[C@H]1O[C@H](CC=NOC[C@@H](C)[C@H](OCc2ccccc2)C(C)C)C=C[C@@H]1OC(C)=O', 'low bin'),
  ('C=CCC(OC(C)=O)[C@@H]1[C@@H](N(Cc2cc3ccccc3o2)C(=O)Cc2ccc(F)cc2)c2cc(OCCCO)ccc2N1C(=O)Cc1ccc(OC)cc1 (some centres not stated)', 'low bin'),
  ('CC(CCN1CCCCc2nc(C)c(C)cc21)=NOC(C)CN1CCCc2nc(C)c(C)cc21 (configuration not stated)', 'high bin');

* * *

Attribute: composite z-score
- Test system: XIP peptide (Xip251-270) binding
- experiment_summary: small-molecule binders of XIP peptide, primary screen, biochemical, small-molecule microarray, fluorescence 635/667 nm, 0.1 µg/mL protein (AID 1182)
- condition_parameters: fluorescent protein binding, 635 nm, higher = more signal, called active from +8 up or from −8 down
attribute_measured: composite z-score

INSERT INTO assay_data (compound, attribute_measured, value_measured) VALUES
  ('C[C@@H]1C=CCC(=O)OC[C@H](C)C(=O)N2CCC[C@H]2C(=O)OC1', 'composite z-score', -0.318),
  ('CCOc1ccc(N2C(=O)/C(=C/C=C/c3ccccc3OC)S(=O)(=O)C2c2cccc([N+](=O)[O-])c2)cc1 (stereo not given)', 'composite z-score', -0.735),
  ('COCC(=C=CC[C@@H](O)c1ccccc1OCCO)CCO', 'composite z-score', 0.291),
  ('COCCOC(=O)N1C(=O)[C@@]2(c3cc(C#Cc4ccc(OC)cc4)ccc31)[C@H](c1ccc(O)cc1)N1[C@H](c3ccccc3)[C@H](c3ccccc3)OC(=O)[C@H]1[C@@H]2C(N)=O', 'composite z-score', -0.0296),
  ('N#Cc1ccc(NN2C(C(O)c3cccc4ccccc34)C=CC3C(=O)N(c4ccccc4)C(=O)C32)cc1 (stereo not given)', 'composite z-score', 0.366),
  ('COc1ccc(O[C@H]2C=C[C@@H](c3ccccc3)O[C@@H]2COC(=O)N2CCCCC2)cc1', 'composite z-score', -0.275),
  ('COc1ccc(O[C@H]2C=C[C@@H](c3ccccc3)O[C@@H]2COC(=O)CCC(C)=NO[C@@H](C)c2cc(-c3c(C)cc(C)cc3C)no2)cc1', 'composite z-score', -0.491),
  ('COc1ccc(-c2nc3c(c4c2C[C@H](C)OC4)CN(CCC(C)C)CC3)cc1', 'composite z-score', 0.731),
  ('CCOC(=O)[C@H](CC(C)C)NC(=O)CCC1CC(OC(=O)NCCc2ccc(F)cc2)CC2(CCCC(COC(=O)NCc3ccccc3)O2)O1 (stereo not given in full)', 'composite z-score', 0.137),
  ('COC(=O)[C@@]1(Cc2ccccc2)[C@H]2c3cc(C(=O)N4CCCC4)n(Cc4ccccn4)c3C[C@H]2CN1C(=O)c1ccccc1', 'composite z-score', 0.766),
  ('Cn1c(=O)n2n(c1=O)[C@H]1[C@H](O)[C@@H]3O[C@@H]3C(=NOC[C@@H](O)COCc3ccco3)[C@H]1CC2', 'composite z-score', 3.04),
  ('CO[C@H]1COC(=O)[C@@H]2CCCN2C(=O)[C@@H](C)COC(=O)CC=C[C@@H]1C', 'composite z-score', -0.0014),
  ('COC(=O)[C@@H]1N=C(c2ccc(OCCCO)cc2)O[C@@H]1c1ccccc1N=[N+]=[N-]', 'composite z-score', 0.82),
  ('O=C(NN=C1C[C@@H](O)[C@@H](O)[C@@H]2[C@@H]3C(=O)N(c4ccc(F)cc4F)C(=O)[C@@H]3CC[C@@H]12)OCc1ccccc1', 'composite z-score', -0.269),
  ('O=C1[C@H]2[C@H]3[C@H](O)[C@H](O)CC(=NOCc4ccccc4)[C@H]3CC[C@H]2C(=O)N1C[C@@H]1CCCO1', 'composite z-score', -0.344),
  ('CCOC(=O)C1=CC[C@H]2C(=O)N(CC)C(=O)[C@@H]12', 'composite z-score', 0.223),
  ('COC(=O)[C@]1(CO)N=C(c2ccc(OCCCO)cc2)O[C@@H]1c1ccccc1N=[N+]=[N-]', 'composite z-score', 0.816),
  ('CC(CCN1CCc2nc(-c3ccccc3)c(-c3ccccc3)cc2C1)=NOC(C)CN1CCCCc2nc(C)c(C)cc21 (stereo not given)', 'composite z-score', 0.685),
  ('CC[C@@H](c1ccccc1)n1c(=O)n2n(c1=O)[C@H]1[C@H](O)[C@@H]3O[C@@H]3C(=NOCC(C)C)[C@H]1CC2', 'composite z-score', -0.242),
  ('CO[C@@H]1COC(=O)CCC[C@@H](C)[C@H](OC)COC(=O)[C@H](Cc2ccccc2)NC(=O)CC=C[C@H]1C', 'composite z-score', 0.0232),
  ('CO[C@@H]1COC(=O)CC=C[C@@H](C)[C@H](OC)COC(=O)[C@H](COCc2ccccc2)NC(=O)CC=C[C@H]1C', 'composite z-score', 0.025),
  ('CCOC(=O)[C@H](Cc1ccccc1)NC(=O)CCC1CC(OC(=O)NCc2ccc3c(c2)OCO3)CC2(CCCC(COC(=O)NCC3CCCCC3)O2)O1 (stereo not given in full)', 'composite z-score', -0.292),
  ('CCOC(=O)C[C@H]1[C@H](OC(=O)c2cc3ccccc3oc2=O)[C@@H](NC(=O)c2ccc3ccccc3n2)c2cc(OCCCO)ccc2N1C(=O)c1ccccc1', 'composite z-score', 0.26),
  ('COC(=O)[C@@]1(Cc2ccc(OC)cc2)[C@H]2c3cc(C(=O)N4CCCC4)n(Cc4cc(F)c(F)c(F)c4)c3C[C@H]2CN1C(=O)c1ccccc1', 'composite z-score', 0.902),
  ('CC(C)=NOCc1ccc(-c2cc(-c3ccccc3)no2)cc1', 'composite z-score', -0.191),
  ('CCOC(=O)CCN1C(=O)[C@H]2[C@H]3[C@H](O)[C@H](O)CC(=NOC[C@@H](O)COCc4ccco4)[C@@H]3CC[C@H]2C1=O', 'composite z-score', -0.159),
  ('O=C1[C@H]2[C@H]3[C@H](O)[C@H](O)CC(=NOC[C@@H](O)COCc4ccco4)[C@H]3CC[C@H]2C(=O)N1C1CCCCC1', 'composite z-score', -0.26),
  ('COC(=O)CC=C[C@H](C)[C@H](CO)NS(=O)(=O)c1ccc(C)cc1', 'composite z-score', -0.291),
  ('COCCCNC(=O)[C@]1(CCC(=O)OC(C)(C)C)N=C(c2ccc(OCCCO)cc2)O[C@@H]1c1ccccc1N=[N+]=[N-]', 'composite z-score', 0.448),
  ('CC(CCN1CCc2nc(-c3ccccc3)c(-c3ccccc3)cc2C1)=NOC[C@@H](C)[C@H](OCc1ccccc1)C(C)C', 'composite z-score', 2.56);
